# System: OVCAR-5 ovarian
# test_name: NCI tumour cell line growth inhibition, 48 h
*1 amine or outer side, *2 acyl side, *3 side chain or, on linkers, in order; H or OH if unused. Where a SMILES comes first, the peptide text is derived from it. [ ]: non-standard residue; d: D form. X32 = C[C@H](N[*:1])C(=O)C(C)(C)C(=O)[*:2]; Hmpa(2S,3S) = CC[C@H](C)[C@H](O)C(=O)O; NMeY = CN[C@@H](Cc1ccc(O)cc1)C(=O)O; NMeL = CN[C@@H](CC(C)C)C(=O)O; NMeV = CN[C@H](C(=O)O)C(C)C; βAla = NCCC(=O)O
# Lookup of reported TGI keyed by entry
assay_endpoint: TGI

compound	assay_value
COc1cc2c(cc1OCCCC(=O)Nc1ccc3ccc4cccc5ccc1c3c45)N=C[C@@H]1CCCN1C2=O	< 0.0506 µM
NC(N)=NS(=O)(=O)c1ccc(Nc2c3ccccc3nc3c(C(=O)Nc4ccc(S(N)(=O)=O)cc4)cccc23)cc1	> 100 µM
C/C(=C\c1csc(C)n1)[C@@H]1C[C@@H]2O[C@]2(C)CCC[C@H](C)[C@H](O)[C@@H](C)C(=O)C(C)(C)[C@@H](O)CC(=O)O1	> 100 µM
O=[N+]([O-])c1cc(-c2nc(-c3ccccc3)c(-c3ccccc3)[nH]2)c(O)c([N+](=O)[O-])c1	50.3 µM
CC1(C)CCC[C@]2(C)[C@H]3[C@H](C#N)c4cc(O)c(O)cc4O[C@@]3(C)CC[C@@H]12	> 10 µM
O=C1CSC(c2cccc([N+](=O)[O-])c2)N1c1ccc(-n2c(-c3ccccc3)nc3ccccc3c2=O)cc1 (centres undefined)	> 100 µM
N#C/C(N)=C(\C#N)NC(=O)C(=O)N/C(C#N)=C(\N)C#N	> 100 µM
CCOC(=O)c1c2c(n3ccccc13)C(=O)c1ncccc1C2=O	27.5 µM
CCCC(=O)Nc1cc(/C=C/C(=O)N2CC(CCl)c3c2cc(O)c2[nH]cc(C)c32)n(C)c1 (centres undefined)	0.0286 µM
CC(=O)O[C@H]1C(=O)[C@@]2(C)C(C(OC(=O)c3ccccc3)C3[C@@H](O)C(OC(=O)[C@@H](O)[C@H](NC(=O)c4ccccc4)c4ccc(C(F)(F)F)cc4)C(C)=C1C3(C)C)[C@]1(OC(C)=O)CO[C@@H]1C[C@@H]2O (some centres undefined)	> 25 µM
COI1NC(=O)c2ccccc21	> 100 µM
COC(=O)Nc1nc2ccc(Br)cc2[nH]1	> 100 µM
COC(=O)C1(C)C=CC(=O)C2(C)C1C(O)C1OC3CC(c4ccoc4)C(C)=C3C1(C)C2CC(=O)O (centres undefined)	> 100 µM
Nn1c(Cc2ccc([N+](=O)[O-])cc2)n[nH]c1=O	> 100 µM
Oc1ccc2oc3ncc(Br)c(-c4ccccc4)c3c2c1	> 100 µM
N/C(=N\N=C\c1ccc2c(c1)OCCO2)NO	> 40.8 µM
COc1ccc2c(c1)CCc1c-2n(CCN2CCCCC2)c2ccc(OC)cc12	> 100 µM
Cc1ccc(S(=O)(=O)NNCNC(=O)c2ccccc2)cc1	> 100 µM
O=C1C[C@@H]2/C(=C(O)\C=C\c3ccccc3)C(=O)C=C[C@@H]2O1	3.84 µM
CC(C)(c1ccccc1)c1ccc(OC#N)cc1	> 100 µM
CCCSS[C@H]1NC(=O)[C@H]1NC(=O)COc1ccccc1	> 100 µM
N#C/C(=C\c1ccc(Br)cc1)n1nnc2ccc(F)cc21	3.99 µM
O=c1c(O)c(-c2cc(O)c(O)c(O)c2)oc2cc(O)cc(O)c12	> 100 µM
CO/N=C(\C)CCC#Cc1ccccc1C(=O)OC	> 10 µM
O=C1C(=O)c2cccnc2-c2ncccc21	1.29 µM
Cc1cc(C)cc(NC(N)=S)c1	> 100 µM
O=[N+]([O-])c1ccc(N/N=C/c2ccc(OCCCCCCCCCCCO)cc2)c([N+](=O)[O-])c1	> 56.1 µM
CC[C@H](C)[C@@H]1OC(=O)CCNC(=O)[C@@H](C)NC(=O)C(C)(C)C(=O)[C@H](C)NC(=O)[C@H](Cc2ccc(OC)cc2)N(C)C(=O)[C@H](C(C)C)N(C)C(=O)CNC(=O)[C@H](CC(C)C)N(C)C(=O)CNC1=O (cyclo(G[NMeL]G[NMeV][NMeY](Me)[X32][dA][βAla][Hmpa(2S,3S)]))	> 31.2 µM
O=C1CCc2c(sc3[nH]c(=S)n(Cc4ccc(Cl)cc4)c(=O)c23)C1	3.6 µM
